# study.system: T1, canine OX40L, full length membrane form, expressed on HEK293 cells (canine)
# T1 chain: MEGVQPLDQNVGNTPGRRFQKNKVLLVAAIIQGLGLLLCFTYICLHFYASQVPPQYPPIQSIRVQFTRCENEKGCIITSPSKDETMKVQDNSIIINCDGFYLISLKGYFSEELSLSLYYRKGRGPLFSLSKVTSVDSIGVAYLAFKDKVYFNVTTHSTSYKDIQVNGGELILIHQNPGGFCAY
# method.summary: cell-based or functional assay
% Signal Inhibition Rep2 by entry:
I only need the number, in %, no unit after it.

binder | measure.unit | % Signal Inhibition Rep2
PMX156 (antibody, V domains shown) VH: ELQLVESGGDLVKPAGSLRLSCVASGFTFSNFRMSWVRQAPGKGLQFVAGINSDGYSTQYRDDVKGRFTISRDNTEKTLYLQMNNLRVEDTAMYYCVKDQGSWGGNFDYWGQGTLVTVSS VL: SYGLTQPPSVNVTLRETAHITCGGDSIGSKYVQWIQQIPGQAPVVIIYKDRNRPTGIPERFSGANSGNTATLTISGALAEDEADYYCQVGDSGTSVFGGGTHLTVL | % | 34.5

// sample PMX034 (antibody, V domains shown, also called PMX34) VH: EVQLVESGGDLVKPGGSLRLSCVASGFTFSNYHMSWVRQAPGKGLQWVAYIVSGGSSTTYADAVKGRFTISRDNAKNTLYLQMTSLRAEDTAVYYCASDLVLLVGGADYWGQGTLVTVSS VL: SYELTQPPSVNVTLRETAHITCGGDSIGSKYVQWIQQNPGQAPVVIIYKDSNRPTGIPERFSGANSGNTATLTISGALAEDEADYYCQVGDSGTKAVFGGGTHLTVL , its % Signal Inhibition Rep2 was 64.7
